Collected 100 nM FACS (MFI Ratio) values appear next to each entry.
molecular target: T1, neuropilin-1 (NRP1) on HEK293 cells overexpressing NRP1 (UniProt O14786 22-923, limits assumed); assay: flow cytometry, HEK293-NRP1 vs HEK293
T1 construct: whole, on cells

binder: NRP1-38 (VHH) VHH: EVQLVESGGGLVQPGGSLRLSCAASGFTFGSTTMGWFRQAPGKEREFVATMRWSTGSTVYADSVKGRFTISADNSKNTAYLQMNSLKPEDTAVYYCAVRGDWWAYWTPWGQGTLVTVSS
100 nM FACS (MFI Ratio): 10.5
--
binder: NRP1-74 (VHH) VHH: EVQLVESGGGLVQPGGSLRLSCAASGSTLRDYTMGWFRQAPGKEREFVATIWWTFDAPYYADSVKGRFTISADNSKNTAYLQMNSLKPEDTAVYYCAAYQAGWGDWGQGTLVTVSS
100 nM FACS (MFI Ratio): 5.8

Just for reference, patent US20230265198A1 is where these values come from.
